These measurements were taken from patent US20140349297A1.

TEST_SUMMARY: Fluorescence lifetimes of acridine derivatives by TCSPC (Table 1)
Assay type: physicochemical
EXPERIMENTAL_SETUP: 1 μM in PBS; excitation 405 nm
ASSAY_READOUT: Fluorescence Lifetime (ns)

In the examples that follow, each entry is paired with its recorded Fluorescence Lifetime.
C[n+]1c2ccccc2c(N)c2ccccc21.[Cl-] [Entry 2]    16.3
Cc1c2ccccc2nc2ccccc12 [Entry 4]    11.7
Nc1c2ccccc2nc2ccccc12 [Entry 1]    15.6
Cc1c2ccccc2[n+](C)c2ccccc12 [Entry 6]    26.2

(A) C[n+]1c2ccccc2cc2ccccc21 [Entry 5]
(B) c1ccc2nc3ccccc3cc2c1 [Entry 3]
Prompt: Of the pair A and B , name the member with the lesser recorded Fluorescence Lifetime. Could you answer with the label of the item you picked?
Completion: B

###

TEST_SUMMARY: Fluorescence lifetimes of acridine derivatives by TCSPC (Table 1)
Assay type: physicochemical
EXPERIMENTAL_SETUP: 1 μM in 50 mM AcOH solution; excitation 405 nm
ASSAY_READOUT: Fluorescence Lifetime (ns)

In the examples that follow, each entry is paired with its recorded Fluorescence Lifetime.
c1ccc2nc3ccccc3cc2c1    29.4
Cc1c2ccccc2[n+](C)c2ccccc12    29.8

(P) C[n+]1c2ccccc2c(N)c2ccccc21.[Cl-]
(Q) Cc1c2ccccc2nc2ccccc12
Prompt: Of the pair P and Q , name the member with the lesser recorded Fluorescence Lifetime. Could you answer with the label of the item you picked?
Completion: P

(1) Nc1c2ccccc2nc2ccccc12
(2) C[n+]1c2ccccc2cc2ccccc21
Prompt: # argmax over Fluorescence Lifetime for candidates 1 and 2 Could you answer with the label of the item you picked?
Completion: 2

###

TEST_SUMMARY: Fluorescence lifetimes of acridine derivatives by TCSPC (Table 1)
Assay type: physicochemical
EXPERIMENTAL_SETUP: 1 μM in water; excitation 405 nm
ASSAY_READOUT: Fluorescence Lifetime (ns)

In the examples that follow, each entry is paired with its recorded Fluorescence Lifetime.
Cc1c2ccccc2[n+](C)c2ccccc12    30.0
Nc1c2ccccc2nc2ccccc12    15.7
C[n+]1c2ccccc2cc2ccccc21    14.1

(P) C[n+]1c2ccccc2c(N)c2ccccc21.[Cl-]
(Q) Cc1c2ccccc2nc2ccccc12
(R) c1ccc2nc3ccccc3cc2c1
Prompt: Sort ascending by Fluorescence Lifetime. Reply with the labels, ordered as the question asks.
Completion: R, P, Q
(R: 10.5 ns, P: 16.4 ns, Q: 29.1 ns)
